Hello, the source for this data is patent US20250179155A1, in case you need it.

# target_or_system: full-length TcdA (TcdA1-2710) (Clostridioides difficile strain VPI10463, UniProt P16154 1-2710)
# Sequence (P16154 whole entry): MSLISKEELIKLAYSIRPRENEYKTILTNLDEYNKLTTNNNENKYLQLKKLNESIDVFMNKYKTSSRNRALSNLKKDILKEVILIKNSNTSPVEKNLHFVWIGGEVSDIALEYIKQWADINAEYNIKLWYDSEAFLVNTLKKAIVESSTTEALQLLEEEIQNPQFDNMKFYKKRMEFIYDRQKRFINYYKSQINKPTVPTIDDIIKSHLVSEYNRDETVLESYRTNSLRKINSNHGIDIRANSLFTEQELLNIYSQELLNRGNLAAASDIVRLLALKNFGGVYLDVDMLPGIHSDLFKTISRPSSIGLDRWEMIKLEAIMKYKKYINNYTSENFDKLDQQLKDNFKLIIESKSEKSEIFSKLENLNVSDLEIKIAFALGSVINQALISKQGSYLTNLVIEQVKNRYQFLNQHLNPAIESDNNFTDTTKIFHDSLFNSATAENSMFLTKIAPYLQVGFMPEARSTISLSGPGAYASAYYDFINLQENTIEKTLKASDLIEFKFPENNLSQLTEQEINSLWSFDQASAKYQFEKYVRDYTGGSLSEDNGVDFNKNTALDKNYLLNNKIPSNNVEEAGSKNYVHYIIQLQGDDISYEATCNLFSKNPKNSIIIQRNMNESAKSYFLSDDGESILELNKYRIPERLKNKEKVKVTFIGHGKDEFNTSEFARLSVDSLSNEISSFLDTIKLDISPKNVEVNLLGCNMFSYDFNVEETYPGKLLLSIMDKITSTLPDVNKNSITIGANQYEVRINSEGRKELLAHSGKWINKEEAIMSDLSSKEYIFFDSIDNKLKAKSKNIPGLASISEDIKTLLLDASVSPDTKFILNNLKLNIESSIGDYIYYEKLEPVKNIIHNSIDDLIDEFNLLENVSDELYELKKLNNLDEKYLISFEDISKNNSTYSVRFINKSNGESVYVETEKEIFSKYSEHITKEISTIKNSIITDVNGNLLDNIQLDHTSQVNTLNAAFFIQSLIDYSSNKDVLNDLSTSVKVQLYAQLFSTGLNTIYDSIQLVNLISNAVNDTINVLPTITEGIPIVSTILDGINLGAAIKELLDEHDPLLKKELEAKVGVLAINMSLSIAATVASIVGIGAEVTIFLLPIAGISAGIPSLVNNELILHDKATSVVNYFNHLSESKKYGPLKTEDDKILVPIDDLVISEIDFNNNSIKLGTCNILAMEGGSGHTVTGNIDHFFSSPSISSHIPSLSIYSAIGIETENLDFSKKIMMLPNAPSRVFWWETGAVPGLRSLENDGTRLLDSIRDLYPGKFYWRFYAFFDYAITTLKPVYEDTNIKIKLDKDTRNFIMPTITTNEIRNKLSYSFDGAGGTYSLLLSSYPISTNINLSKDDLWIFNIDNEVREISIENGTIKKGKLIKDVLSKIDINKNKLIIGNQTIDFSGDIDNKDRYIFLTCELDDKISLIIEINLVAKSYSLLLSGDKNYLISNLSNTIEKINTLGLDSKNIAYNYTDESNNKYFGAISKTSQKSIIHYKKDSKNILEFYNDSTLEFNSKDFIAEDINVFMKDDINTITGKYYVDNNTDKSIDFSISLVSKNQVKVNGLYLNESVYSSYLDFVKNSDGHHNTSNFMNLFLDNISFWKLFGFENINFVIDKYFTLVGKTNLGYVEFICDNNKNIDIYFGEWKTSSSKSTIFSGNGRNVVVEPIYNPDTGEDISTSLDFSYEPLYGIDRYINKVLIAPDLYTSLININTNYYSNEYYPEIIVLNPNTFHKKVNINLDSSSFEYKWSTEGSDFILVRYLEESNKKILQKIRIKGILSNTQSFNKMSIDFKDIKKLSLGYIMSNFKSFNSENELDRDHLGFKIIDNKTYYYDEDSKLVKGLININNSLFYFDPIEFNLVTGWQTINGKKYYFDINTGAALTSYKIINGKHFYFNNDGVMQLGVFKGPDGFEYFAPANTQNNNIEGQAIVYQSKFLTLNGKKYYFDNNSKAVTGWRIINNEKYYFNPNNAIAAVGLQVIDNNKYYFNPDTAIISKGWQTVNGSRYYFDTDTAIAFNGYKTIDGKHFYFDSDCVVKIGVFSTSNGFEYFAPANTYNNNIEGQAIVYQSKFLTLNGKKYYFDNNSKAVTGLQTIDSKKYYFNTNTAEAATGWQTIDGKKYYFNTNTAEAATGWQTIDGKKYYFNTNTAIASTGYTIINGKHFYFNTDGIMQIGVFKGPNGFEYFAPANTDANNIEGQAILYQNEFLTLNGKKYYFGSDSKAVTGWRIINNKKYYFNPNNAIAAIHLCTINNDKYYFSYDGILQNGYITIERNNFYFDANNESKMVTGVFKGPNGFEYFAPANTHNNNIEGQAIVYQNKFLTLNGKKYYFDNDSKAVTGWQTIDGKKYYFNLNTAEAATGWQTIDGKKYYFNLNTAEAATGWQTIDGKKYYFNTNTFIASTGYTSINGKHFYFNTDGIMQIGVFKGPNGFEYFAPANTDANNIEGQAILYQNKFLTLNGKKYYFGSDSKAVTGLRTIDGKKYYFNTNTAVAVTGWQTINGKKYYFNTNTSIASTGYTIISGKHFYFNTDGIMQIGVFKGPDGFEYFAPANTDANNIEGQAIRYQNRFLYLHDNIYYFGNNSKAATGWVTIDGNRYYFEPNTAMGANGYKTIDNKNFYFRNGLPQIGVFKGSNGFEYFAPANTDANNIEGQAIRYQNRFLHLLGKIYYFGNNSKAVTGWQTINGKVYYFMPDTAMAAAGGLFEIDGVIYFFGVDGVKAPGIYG
# assay_text: cell-based or functional assay
measurement_label: EC50, TcdA neutralization, T84 cells

>  <binder>
A2G5 (VHH) VHH: QVQLQESGGGLVQAGGSLRLSCAVSGRTLSSYAMGWFRQALGKEREFVAGISRGGGMTRYTDSVKGRFTISRDDAKNTVYLQMNSLKPDDTAVYSCAASYALIDMSSAYDYWGQGTQVTVSS

>  <observed>
> 10 µM

$$$$
>  <binder>
A1H1 (VHH) VHH: QVQLQESGGGLVQAGGSLRLSCAASGGTFSKTSVGWFRQAPGLEREFVALITWSGNTYFVDSVRERFAISRDNAENTVYLQMNSLEPEDTAVYYCAARERTAARIQEFDYWGQGTQVTVSS

>  <observed>
> 10 µM

$$$$
>  <binder>
A1F4 (VHH) VHH: QVQLQESGGGLVQAGGSLRLSCTASGRTFTTYNWAWFCQAPGKEREFVAAITGLTRHTYYADSVKGRFTISRDNAKNTVYLQMNSLKPEDTAVYFCAVSSGGDLNERVNYEYWGQGTQVTVSS

>  <observed>
> 10 µM

$$$$
>  <binder>
A1C1 (VHH) VHH: QVQLQESGGGLVQAGGSLRLSCAASGGTFSSYSVGWFRQAPGLEREFVGMITWRGITYFEDFVKDRFNISRDNAKNTVYLQMNSLKPEDTAVYSCAARDRRAARIQEFDYWGQGTQVTVSS

>  <observed>
> 10 µM

$$$$
>  <binder>
A2A8 (VHH) VHH: QVQLQESGGGLVQAGDSLRLSCTASGGTFSSYSIGWFRQAPGLEREFVALITWRNNTYLGDSVRERFAISRDNAKNTVYLQMNSLKPEDTAVYSCAARERRVARIQEFDYWGQGTQVTVSS

>  <observed>
> 10 µM

$$$$
